# System: BEN
# assay method text: relative viability (nuclei count vs DMSO), 5 days (fraction); higher = more cells survive
# measurement setup: first compound 1.265 µM
// classify: if (relative viability < 0.3) Satisfied else Not satisfied

Here are 3 compounds together with their reported answers.
compound	class
Cc1sc2c(c1C)C(c1ccc(Cl)cc1)=N[C@@H](CC(=O)OC(C)(C)C)c1nnc(C)n1-2 [JQ1] + O=C(CCCCCCC(=O)Nc1ccccc1)NO [Vorinostat] (partner 1 µM)	Not satisfied
Cc1sc2c(c1C)C(c1ccc(Cl)cc1)=N[C@@H](CC(=O)OC(C)(C)C)c1nnc(C)n1-2 [JQ1] + CCNC(=O)c1noc(-c2cc(C(C)C)c(O)cc2O)c1-c1ccc(CN2CCOCC2)cc1 [Luminespib] (partner 0.01 µM)	Satisfied
Cc1sc2c(c1C)C(c1ccc(Cl)cc1)=N[C@@H](CC(=O)OC(C)(C)C)c1nnc(C)n1-2 [JQ1] + C[C@@H](Oc1cc(-c2cnn(C3CCNCC3)c2)cnc1N)c1c(Cl)ccc(F)c1Cl [Crizotinib] (partner 1 µM)	Not satisfied

Item Cc1sc2c(c1C)C(c1ccc(Cl)cc1)=N[C@@H](CC(=O)OC(C)(C)C)c1nnc(C)n1-2 [JQ1] + COc1cc2c(Oc3ccc(NC(=O)C4(C(=O)Nc5ccc(F)cc5)CC4)cc3F)ccnc2cc1OCCCN1CCOCC1 [Foretinib] (partner 0.25 µM) : relative viability beneath 0.3, strictly?
Not satisfied

Item Cc1sc2c(c1C)C(c1ccc(Cl)cc1)=N[C@@H](CC(=O)OC(C)(C)C)c1nnc(C)n1-2 [JQ1] + COc1cccc2cc(-c3nc([C@H]4CC[C@H](C(=O)O)CC4)n4ncnc(N)c34)[nH]c12 [OSI-027] (partner 0.5 µM) : relative viability beneath 0.3, strictly?
Satisfied

Item Cc1sc2c(c1C)C(c1ccc(Cl)cc1)=N[C@@H](CC(=O)OC(C)(C)C)c1nnc(C)n1-2 [JQ1] + O=C(c1cc(Cc2n[nH]c(=O)c3ccccc23)ccc1F)N1CCN(C(=O)C2CC2)CC1 [Olaparib] (partner 8 µM) : relative viability beneath 0.3, strictly?
Not satisfied

----------
relative viability reference
# Tested on: NCI-H1666
# assay method text: relative viability (nuclei count vs DMSO), 5 days (fraction); higher = more cells survive
# measurement setup: first compound 50 µM

Look over these answered cases.
molecule	relative viability
O=C(O)CCCCC(CCSCc1ccccc1)SCc1ccccc1 (centres undefined) [CPI-613] + N=C(N)NC(=N)NCCc1ccccc1 [Phenformin] (partner 250 µM)	0.534
O=C(O)CCCCC(CCSCc1ccccc1)SCc1ccccc1 (centres undefined) [CPI-613] + Nc1nc2[nH]cc(CCc3ccc(C(=O)N[C@@H](CCC(=O)O)C(=O)O)cc3)c2c(=O)[nH]1 [Pemetrexed] (partner 0.2 µM)	0.835
O=C(O)CCCCC(CCSCc1ccccc1)SCc1ccccc1 (centres undefined) [CPI-613] + CC1(C)CCC(c2ccc(Cl)cc2)=C(CN2CCN(c3ccc(C(=O)NS(=O)(=O)c4ccc(N[C@H](CCN5CCOCC5)CSc5ccccc5)c(S(=O)(=O)C(F)(F)F)c4)cc3)CC2)C1 [Navitoclax] (partner 0.5 µM)	1.03

Then this molecule:
Need relative viability of O=C(O)CCCCC(CCSCc1ccccc1)SCc1ccccc1 (centres undefined) [CPI-613] + C[C@@H](Oc1cc(-c2cnn(C3CCNCC3)c2)cnc1N)c1c(Cl)ccc(F)c1Cl [Crizotinib] (partner 1 µM) , thanks.
1.03
